Hey, just so you know, these numbers are from PubChem BioAssay (NCI).

# Test system: HOP-92 NSCLC
# measurementDescription: NCI-60 one-dose screen, 48 h
# reportedConditions: 10 µM unless noted
This is part of a sample that, as a whole, favours compounds with a hit. Of some 83,000 tested, about 20% had one in any assay. Calls of active or inactive are those of the source. How the source made its calls: active means growth percent below 10; inactive means the rest.
# valid calls are Y for active, N for inactive; nothing else

What is the recorded call for this molecule in the test? O=C1Nc2ccc(I)cc2C1=O
N

What is the recorded call for this molecule in the test? O=c1oc2ccccc2cc1C1=NN=C(SCc2ccccc2)SC1
N

What is the recorded call for this molecule in the test? CCN(CC)CCSc1nc(-c2ccccc2)c(C#N)c(=O)[nH]1
N

What is the recorded call for this molecule in the test? O=C(Nc1nn(-c2ccc(Cl)cc2Cl)nc1-c1ccccc1)c1ccccc1
N

What is the recorded call for this molecule in the test? CC(C)(C)c1cc(-c2nc3ccc(N4CCN(S(C)(=O)=O)CC4)cc3[nH]2)cc(C(C)(C)C)c1O
N

What is the recorded call for this molecule in the test? CCCCOC(=O)OCc1cc(=O)c(O)co1
N

What is the recorded call for this molecule in the test? Cc1ccc(Cc2cnc(NC(=O)c3cc(Br)cs3)s2)cc1
N

What is the recorded call for this molecule in the test? COc1ccc2cc(C(=O)c3coc4ccc(O)cc34)ccc2c1
N

What is the recorded call for this molecule in the test? C=CCn1c(SCC(=O)Nc2ccc(C(=O)/C=C/c3ccc(Cl)cc3)cc2)nnc1-c1cc(-c2ccc(S(N)(=O)=O)cc2)nc2ccccc12
N

What is the recorded call for this molecule in the test? N#Cc1c(-c2ccc(Cl)cc2)nc(NN=Cc2cccc(O)c2)nc1N1CCOCC1
N

What is the recorded call for this molecule in the test? COc1ccc(-c2nnc(-c3ccc4c(c3)nc(-c3ccncc3)n4C3CCCCC3)o2)cc1
N

What is the recorded call for this molecule in the test? O=[N+]([O-])c1ccc(S(=O)(=O)N2CCN(C3=NS(=O)(=O)c4ccccc4N3c3ccccc3)CC2)cc1
Y

What is the recorded call for this molecule in the test? COC(C(=O)[C@@H](O)[C@@H](C)O)[C@@H]1Cc2cc3cc(O[C@H]4C[C@@H](O[C@H]5C[C@@H](O)[C@H](O)C(C)O5)[C@H](O)C(C)O4)c(C)c(O)c3c(O)c2C(=O)[C@H]1O[C@H]1C[C@@H](O[C@H]2C[C@@H](O[C@H]3C[C@@H](O)[C@H](OC)C(C)O3)[C@@H](O)C(C)O2)[C@H](O)C(C)O1 (some centres undefined)
Y

What is the recorded call for this molecule in the test? Cc1ccc(-c2nc3nc(-c4ccccc4)nc(N4CCNCC4)c3o2)cc1
Y

What is the recorded call for this molecule in the test? CCOC(=O)CNP(=O)(OC[C@@H](Cc1ccccc1)NC(=O)c1cc2ccccc2s1)Oc1ccccc1 (some centres undefined)
N

What is the recorded call for this molecule in the test? CC(=O)Cc1nsc(NC(=O)c2cc(-c3cc(Cl)cc(Cl)c3)oc2C)n1
N

What is the recorded call for this molecule in the test? O=C(Cn1c(=O)sc2nc3ccccc3nc21)Nc1ncc(Cc2cccc(Cl)c2Cl)s1
N

What is the recorded call for this molecule in the test? COc1ccc(-c2nc(/C=C3\SC(=NCc4ccccc4)NC3=O)c3ccccn23)cc1
Y

What is the recorded call for this molecule in the test? Cc1ccc(/C=N/Nc2nc(Nc3ccccc3)nc(-n3nc(C)cc3C)n2)cc1
N

What is the recorded call for this molecule in the test? CC(C)CCNC(=O)Cn1cccc(NC(=O)OCc2ccccc2)c1=O
N

What is the recorded call for this molecule in the test? COC1=CC(c2ccc[nH]2)=N/C1=C\c1[nH]c(C)c(C(=O)OCc2ccccc2)c1C
Y

What is the recorded call for this molecule in the test? CC(C)(C)n1cc(-c2ccnc(NCCNS(=O)(=O)c3cccc(F)c3)c2)c(-c2ccccc2)n1
Y

What is the recorded call for this molecule in the test? COc1cc(-c2csc(NC(=O)c3cc(-n4cnc(C)c4)cc(C(F)(F)F)c3)n2)cc(OC)c1OC
Y

What is the recorded call for this molecule in the test? COc1ccc2nc3ccc(OC)cc3c(SCCCN)c2c1
N

What is the recorded call for this molecule in the test? O=C(Nc1nc2ccc(F)cc2s1)c1cccnc1Nc1ccc(Cl)cc1
Y

What is the recorded call for this molecule in the test? O=C(NCc1ccccc1)Nc1ccccc1CNc1nc(Nc2ccc(OCCN3CCCC3)cc2)ncc1Cl
N

What is the recorded call for this molecule in the test? CN1CCN(Cc2ccc(NC(=O)c3cncc(C#Cc4cnc(N)c5ccccc45)c3)cc2C(F)(F)F)CC1
Y

What is the recorded call for this molecule in the test? Cc1nc(-c2ccccc2)cc2c(O)c(C(=O)NN)[nH]c(=O)c12
N

What is the recorded call for this molecule in the test? CCOC(=O)c1cnc2ccccc2c1Cl
N

What is the recorded call for this molecule in the test? Clc1ccc(CNc2c3ccccc3nc3ccccc23)cc1
N

What is the recorded call for this molecule in the test? N#C/C(=C\c1ccc(Br)cc1)n1nnc2ccc(F)cc21
N

What is the recorded call for this molecule in the test? O=c1oc2c(cnc3ccccc32)cc1-c1ccsc1
N

What is the recorded call for this molecule in the test? C=CCn1c(SCC(=O)Nc2ccc(C(=O)/C=C/c3cc4cc(OC)ccc4nc3Cl)cc2)nnc1-c1ccc(Br)cc1
N

What is the recorded call for this molecule in the test? Nc1ncnc2c1N=C(c1ccc3c(c1)OCO3)CC(c1ccc([N+](=O)[O-])cc1)N2 (centres undefined)
N

What is the recorded call for this molecule in the test? CCCNC(=O)Oc1ccc(/C(=C(/C)Cc2ccc(OC)cc2)c2ccc(OCCCN(C)C)cc2)cc1
N

What is the recorded call for this molecule in the test? CCOC(=O)C#Cc1c(C(=O)OCC)nnn1[C@@H]1O[C@H](CO)[C@H]2OC3(CCCCC3)O[C@H]21
N

What is the recorded call for this molecule in the test? N#Cc1c(-c2ccccc2)cc(-c2ccccc2)n(CCCCCC(=O)Nc2ccccc2N)c1=O
N

What is the recorded call for this molecule in the test? C#Cc1cccc(Nc2ncnc3ccc(-c4cncc(NS(C)(=O)=O)c4)cc23)c1
Y

What is the recorded call for this molecule in the test? Cc1ccc2c3c(c(=O)[nH]c2c1)C1(C(C#N)=C(N)O3)c2cc(Br)ccc2-c2ccc(Br)cc21
Y
